Tested on: Plasmodium berghei
Assay: Screen against P. berghei liver stage (PbLuc), transformed with Luciferase, at 10uM
Format: functional, HepG2
Conditions: tested at 10 uM
The whole screen tested about 69,000 compounds, of which about 8,600 (12%) showed an effect of 50% or more. Shown is part of a subset that was picked to be rich in strong results.
Think of 30% as a floor: if INHIBITION stands on it or above, it is criterion met; beneath it, criterion not met.

{"compound": "Cc1cc(C)nc(N2CCC(C(=O)Nc3n[nH]c(CC(C)C)n3)CC2)n1", "assignedLabel": "criterion not met"}
{"compound": "CCOc1ccccc1OC1CCN(C(=O)c2[nH]nc(C)c2Br)CC1", "assignedLabel": "criterion not met"}
{"compound": "O=C(C1CCC1)N1C[C@@H]2CN(Cc3ccncc3)C(=O)[C@@H]2C1", "assignedLabel": "criterion met"}
{"compound": "O=C(C1CC=CC1)N1C[C@H]2CN(Cc3ccncc3)C(=O)[C@H]2C1", "assignedLabel": "criterion met"}
{"compound": "Cc1cccc(CN2C[C@@H]3CN(C(=O)C4CC=CC4)C[C@@H]3C2=O)n1", "assignedLabel": "criterion not met"}
{"compound": "COCCN1C(=O)CC[C@@H]2[C@H]1CCN2Cc1cccc(C#N)c1", "assignedLabel": "criterion not met"}
{"compound": "O=C1[C@H]2CN(Cc3ccoc3)C[C@H]2CN1Cc1ccncc1", "assignedLabel": "criterion met"}
{"compound": "COc1ncccc1CN1C[C@H]2CCN(c3ncccn3)C[C@H]2C1", "assignedLabel": "criterion met"}
{"compound": "O=C(NC1CCCC1)c1cc2c(s1)CCN2C(=O)c1ccccc1", "assignedLabel": "criterion met"}
{"compound": "Cc1noc(C(C)C)c1C(=O)NCCN1CCOCC1", "assignedLabel": "criterion not met"}
{"compound": "O=C(C1CCOC1)N1C[C@H]2CN(Cc3ccncc3)C(=O)[C@H]2C1 (stereo partly specified)", "assignedLabel": "criterion not met"}
{"compound": "CCc1csc(C2CCCN(C(=O)c3ccncc3)C2)n1 (stereo unspecified)", "assignedLabel": "criterion not met"}
{"compound": "c1cc(CN2CC[C@@H]3CN(c4cncnc4)C[C@@H]3C2)ccn1", "assignedLabel": "criterion not met"}
{"compound": "CC(Cn1cccn1)NC(=O)N(C)Cc1ccc(C(N)=O)cc1 (stereo unspecified)", "assignedLabel": "criterion not met"}
{"compound": "CC(C)n1nc(CN2CCCC2=O)c2c1CN(C(=O)c1ccc[nH]1)C2", "assignedLabel": "criterion not met"}
{"compound": "O=C(O)c1cc(NS(=O)(=O)c2ccc(Cl)s2)ccc1N1CCOCC1", "assignedLabel": "criterion not met"}
{"compound": "Cc1ccc(=O)n(Cc2csc(N(C)C3CC3)n2)n1", "assignedLabel": "criterion not met"}
{"compound": "CCN1C[C@@H]2CN(C(=O)C3CC=CC3)C[C@@H]2C1=O", "assignedLabel": "criterion not met"}
{"compound": "CC(C)CN1C(=O)C[C@@H]2[C@@H]1CCN2Cc1cccc(C#N)c1", "assignedLabel": "criterion met"}
{"compound": "O=c1ccncn1Cc1csc(C2CC2)n1", "assignedLabel": "criterion met"}
{"compound": "CN(CCCNC(=O)c1ccccc1F)CC(F)(F)F", "assignedLabel": "criterion met"}
{"compound": "COCCN1C(=O)C[C@H]2[C@H]1CCN2Cc1ccc(OC)cc1", "assignedLabel": "criterion not met"}
{"compound": "COCCN1C(=O)C[C@H]2[C@H]1CCN2Cc1cccc(C#N)c1", "assignedLabel": "criterion met"}
{"compound": "c1cnc(N2C[C@H]3CCN(Cc4ccncc4)C[C@H]3C2)nc1", "assignedLabel": "criterion met"}
{"compound": "O=C(NCc1nnc2n1CCC2)NCC1(c2cccc(F)c2)CC1", "assignedLabel": "criterion not met"}
{"compound": "COc1ncccc1CN1C[C@@H]2CN(c3ncccn3)C[C@@H]2C1", "assignedLabel": "criterion met"}
{"compound": "COc1ncccc1CN1C[C@H]2CCN(c3ccc(C)nn3)C[C@H]2C1", "assignedLabel": "criterion met"}
{"compound": "COc1ccc(N2CCN(C(=O)OC(C)(C)C)C(C(=O)O)C2)cc1 (stereo unspecified)", "assignedLabel": "criterion not met"}
{"compound": "Cc1cnc(N2CCC3(CC2)CC3CNC(=O)C2CCC2)nc1 (stereo unspecified)", "assignedLabel": "criterion met"}
{"compound": "CN1CCN(C(=O)c2cc3c(s2)CCN3C(=O)C2CC2)CC1", "assignedLabel": "criterion not met"}
{"compound": "CN(C)C(=O)CN1C(=O)C[C@@H]2[C@@H]1CCN2Cc1cccc(C#N)c1", "assignedLabel": "criterion met"}
